These data points were gathered from patent US10752587B2.

Molecular target: glutathione-S-transferase (GST) tagged LXRbeta LBD (ligand binding domain) (Homo sapiens, UniProt P55055)
Construct: purchased Invitrogen pv4658.pps
Sequence (P55055 222-460 limits assumed): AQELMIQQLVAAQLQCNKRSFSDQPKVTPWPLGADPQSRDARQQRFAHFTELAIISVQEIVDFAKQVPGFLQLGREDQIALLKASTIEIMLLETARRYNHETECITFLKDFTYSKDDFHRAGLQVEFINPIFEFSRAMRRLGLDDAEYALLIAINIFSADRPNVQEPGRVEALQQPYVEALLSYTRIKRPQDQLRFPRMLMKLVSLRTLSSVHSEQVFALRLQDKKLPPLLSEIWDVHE
Assay: LanthaScreen TR-FRET Liver X Receptor Coactivator Assay, co-activator recruitment to LXRbeta LBD
Type: biochemical
Settings: efficacy at max dose, in relation to reference dual agonist T0901317; read-out: LXR beta Activity @ max dose (%)
Returns the class for an entry based on its Emax. Class ranges: group A = under 60%, group B = from 60% up to 90%, group C = 90% and over

{"COMPOUND": "CN(C)C(=O)c1ccc(N2CCC(CC3CCN(C(=O)[C@@](O)(c4cccc(C(F)(F)F)c4)C(F)(F)F)CC3)CC2)cc1Cl [Example 2-33]", "QUALITATIVE LABEL": "group B"}
{"COMPOUND": "CN(C)C(=O)c1ccc(N2CCC(CC3CCN(C(=O)C(O)(c4cc(F)cc(Cl)c4)C(F)(F)F)CC3)CC2)nc1Cl (centres unmarked) [Example 7-109]", "QUALITATIVE LABEL": "group C"}
{"COMPOUND": "COc1cccc([C@@](O)(C(=O)N2CCC(CC3CCN(c4ccc(C(=O)N(C)C)c(Cl)c4)CC3)CC2)C(F)(F)C(F)(F)F)c1 [Example 2-89]", "QUALITATIVE LABEL": "group B"}
{"COMPOUND": "CN(C)C(=O)c1ccc(N2CCC(CC3CCN(C(=O)[C@](O)(c4ccccc4)C(F)(F)F)CC3)CC2)nc1Cl [Example 7-63]", "QUALITATIVE LABEL": "group C"}
{"COMPOUND": "COc1cc(Cl)cc([C@@](O)(C(=O)N2CCC(C)(CC3CCN(c4ccc(C(=O)N(C)C)c(Cl)c4)CC3)CC2)C(F)(F)F)c1 [Example 2-48]", "QUALITATIVE LABEL": "group A"}
{"COMPOUND": "CCOc1cccc([C@@](O)(C(=O)N2CCC(CC3(C)CCN(c4ccc(C(=O)N(C)C)c(C)n4)CC3)CC2)C(F)(F)F)c1 [Example 7-14]", "QUALITATIVE LABEL": "group C"}
{"COMPOUND": "Cc1ccsc1C(O)(C(=O)N1CCC(CC2CCN(c3ccc(C(=O)N(C)C)c(Cl)c3)CC2)CC1)C(F)(F)F (centres unmarked) [Example 2-38]", "QUALITATIVE LABEL": "group B"}
{"COMPOUND": "COc1cccc(C(=O)C(=O)N2CCC(CC3CCN(c4ccc(C(=O)N(C)C)c(Cl)c4)CC3)CC2)c1 [Example 2-104]", "QUALITATIVE LABEL": "group A"}
{"COMPOUND": "CNC(=O)c1ccc(N2CCC(CC3CCN(C(=O)[C@](O)(c4cc(F)cc(OC)c4)C(F)(F)F)CC3)CC2)nc1Cl [Example 7-132]", "QUALITATIVE LABEL": "group C"}
{"COMPOUND": "CC(C)Oc1cccc([C@@](O)(C(=O)N2CCC(CC3CCN(c4ccc(C(=O)N(C)C)c(Cl)n4)CC3)CC2)C(F)(F)F)c1 [Example 7-91]", "QUALITATIVE LABEL": "group A"}
{"COMPOUND": "CNC(=O)c1ccc(N2CCC(CC3CCN(C(=O)[C@](O)(c4cccc(OC(C)C)c4)C(F)(F)F)CC3)CC2)nc1Cl [Example 7-136]", "QUALITATIVE LABEL": "group B"}
{"COMPOUND": "CC(C)c1cccc([C@@](O)(C(=O)N2CCC(C)(CC3CCN(c4ccc(C(=O)N(C)C)c(Cl)c4)CC3)CC2)C(F)(F)F)c1 [Example 2-56]", "QUALITATIVE LABEL": "group A"}
{"COMPOUND": "CN(C)C(=O)c1ccc(N2CCC(CC3CN(C(=O)C(N)(c4ccccc4)C(F)(F)F)C3)CC2)cc1Cl (centres unmarked) [Example 2-69]", "QUALITATIVE LABEL": "group C"}
{"COMPOUND": "CCc1cccc([C@@](O)(C(=O)N2CCC(C)(CC3CCN(c4ccc(C(=O)N(C)C)c(C)c4)CC3)CC2)C(F)(F)F)c1 [Example 2-78]", "QUALITATIVE LABEL": "group A"}
{"COMPOUND": "CN(C)C(=O)c1ccc(N2CCC(CC3CCN(C(=O)[C@@](O)(c4ccccc4)C(F)(F)F)CC3)CC2)cc1 [Example 2-127]", "QUALITATIVE LABEL": "group B"}
{"COMPOUND": "CNC(=O)c1ccc(N2CCC(OC3CCN(C(=O)C(O)(c4cccc(C(F)(F)F)c4)C(F)(F)F)CC3)CC2)cc1Cl (centres unmarked) [Example 7-28]", "QUALITATIVE LABEL": "group C"}
{"COMPOUND": "CNC(=O)c1ccc(N2CCC(CC3CCN(C(=O)C4(c5ccccc5F)CCCC4)CC3)CC2)cc1Cl [Example 7-34]", "QUALITATIVE LABEL": "group B"}
{"COMPOUND": "CCc1cccc([C@@](O)(C(=O)N2CCC(CC3CCN(c4ccc(C(=O)N(C)C)c(C)c4)CC3)CC2)C(F)(F)F)c1 [Example 2-156]", "QUALITATIVE LABEL": "group A"}
{"COMPOUND": "CN(C)C(=O)c1ccc(N2CCC(CC3(C)CCN(C(=O)[C@](O)(c4cccc(OC(F)(F)F)c4)C(F)(F)F)CC3)CC2)cc1Cl [Example 2-51]", "QUALITATIVE LABEL": "group A"}
{"COMPOUND": "CN(C)C(=O)c1ccc(N2CCC(CC3CCN(C(=O)C(F)(F)c4cccc(Cl)c4)CC3)CC2)nc1Cl [Example 7-81]", "QUALITATIVE LABEL": "group A"}
{"COMPOUND": "CCOc1cccc([C@@](O)(C(=O)N2CCC(CC3CCN(c4ccc(C(=O)N(C)C)c(Cl)c4)CC3)CC2)C(F)(F)F)c1 [Example 2-92]", "QUALITATIVE LABEL": "group A"}
{"COMPOUND": "Cc1cc(N2CCC(CC3CCN(C(=O)[C@](O)(c4cccc(C(F)(F)F)c4)C(F)(F)F)CC3)CC2)ccc1C(=O)N(C)C [Example 2-148]", "QUALITATIVE LABEL": "group B"}
{"COMPOUND": "CNC(=O)c1ccc(N2CCC(CC3CCN(C(=O)[C@](O)(c4cccc(OC(C)C)c4)C(F)(F)F)CC3)CC2)cc1Cl [Example 7-121]", "QUALITATIVE LABEL": "group B"}
{"COMPOUND": "COc1cccc([C@@](O)(C(=O)N2CCC(OC3CCN(c4ccc(C(=O)N(C)C)c(OC)n4)CC3)CC2)C(F)(F)F)c1 [Example 7-154]", "QUALITATIVE LABEL": "group C"}

* * *

Target: glutathione-S-transferase (GST) tagged LXRbeta LBD (ligand binding domain) (Homo sapiens)
Construct: purchased Invitrogen pv4658.pps
Experiment: LanthaScreen TR-FRET Liver X Receptor Coactivator Assay, co-activator recruitment to LXRbeta LBD
Assay type: biochemical
Conditions: potency (Inflection Point, IP), co-activator recruitment to LXRbeta LBD, in relation to T0901317; read-out: LXR beta IP
From the text: […]
Returns the class for an entry based on its EC50. Class ranges: lower range = under 10 nM, middle range = from 10 nM up to 30 nM, upper range = 30 nM and over

{"COMPOUND": "CCN(C)C(=O)c1ccc(N2CCC(CC3CCN(C(=O)[C@](O)(c4ccccc4)C(F)(F)F)CC3)CC2)cc1Cl [Example 4-12]", "ASSAYED SYSTEM": "glutathione-S-transferase (GST) tagged LXRbeta LBD (ligand binding domain) (Homo sapiens)", "QUALITATIVE LABEL": "middle range"}
{"COMPOUND": "O=C(c1ccc(N2CCC(CC3CCN(C(=O)[C@](O)(c4cc(Cl)cc(Cl)c4)C(F)(F)F)CC3)CC2)cc1Cl)N1CCC[C@H]1CO [Example 4-24]", "ASSAYED SYSTEM": "glutathione-S-transferase (GST) tagged LXRbeta LBD (ligand binding domain) (Homo sapiens)", "QUALITATIVE LABEL": "lower range"}
{"COMPOUND": "CN(C)C(=O)c1ccc(N2CCC(OC3CCN(C(=O)[C@](O)(c4ccccc4)C(F)(F)C(F)(F)F)CC3)CC2)cc1Cl [Example 2-22]", "ASSAYED SYSTEM": "glutathione-S-transferase (GST) tagged LXRbeta LBD (ligand binding domain) (Homo sapiens)", "QUALITATIVE LABEL": "middle range"}
{"COMPOUND": "CN(C)C(=O)c1ccc(N2CCC(CC3CCN(C(=O)[C@](O)(c4cccc(OC(F)F)c4)C(F)(F)F)CC3)CC2)cc1Cl [Example 2-116]", "ASSAYED SYSTEM": "glutathione-S-transferase (GST) tagged LXRbeta LBD (ligand binding domain) (Homo sapiens)", "QUALITATIVE LABEL": "lower range"}
{"COMPOUND": "COc1cc(F)cc([C@@](O)(C(=O)N2CCC(CC3CCN(c4ccc(C(=O)N(C)C)c(Cl)n4)CC3)CC2)C(F)(F)F)c1 [Example 7-101]", "ASSAYED SYSTEM": "glutathione-S-transferase (GST) tagged LXRbeta LBD (ligand binding domain) (Homo sapiens)", "QUALITATIVE LABEL": "lower range"}
{"COMPOUND": "CN(C)C(=O)c1ccc(N2CCC(CC3CCN(C(=O)C(F)(F)c4cccc(Cl)c4)CC3)CC2)nc1Cl [Example 7-81]", "ASSAYED SYSTEM": "glutathione-S-transferase (GST) tagged LXRbeta LBD (ligand binding domain) (Homo sapiens)", "QUALITATIVE LABEL": "upper range"}
{"COMPOUND": "CN(C)C(=O)c1ccc(N2CCC(CC3CCN(C(=O)[C@@](O)(c4cc(F)cc(Cl)c4)C(F)(F)F)CC3)CC2)nc1Cl [Example 7-113]", "ASSAYED SYSTEM": "glutathione-S-transferase (GST) tagged LXRbeta LBD (ligand binding domain) (Homo sapiens)", "QUALITATIVE LABEL": "upper range"}
{"COMPOUND": "CN(Cc1ccon1)C(=O)c1ccc(N2CCC(OC3CCN(C(=O)[C@](O)(c4ccccc4)C(F)(F)F)CC3)CC2)cc1Cl [Example 4-15]", "ASSAYED SYSTEM": "glutathione-S-transferase (GST) tagged LXRbeta LBD (ligand binding domain) (Homo sapiens)", "QUALITATIVE LABEL": "upper range"}
{"COMPOUND": "CNC(=O)c1ccc(N2CCC(CC3CCN(C(=O)C(O)(c4cccc(Cl)c4)C(F)(F)F)CC3)CC2)cc1Cl (stereo not shown) [Example 7-37]", "ASSAYED SYSTEM": "glutathione-S-transferase (GST) tagged LXRbeta LBD (ligand binding domain) (Homo sapiens)", "QUALITATIVE LABEL": "middle range"}
{"COMPOUND": "CN(C)C(=O)c1ccc(N2CCC(CC3CCN(C(=O)[C@](N)(c4cc(Cl)cc(Cl)c4)C(F)(F)F)CC3)CC2)cc1Cl [Example 2-117]", "ASSAYED SYSTEM": "glutathione-S-transferase (GST) tagged LXRbeta LBD (ligand binding domain) (Homo sapiens)", "QUALITATIVE LABEL": "middle range"}
{"COMPOUND": "Cc1cc(N2CCC(CC3(C)CCN(C(=O)[C@](O)(c4cccc(OC(C)C)c4)C(F)(F)F)CC3)CC2)ccc1C(=O)N(C)C [Example 2-77]", "ASSAYED SYSTEM": "glutathione-S-transferase (GST) tagged LXRbeta LBD (ligand binding domain) (Homo sapiens)", "QUALITATIVE LABEL": "upper range"}
{"COMPOUND": "CN(C)C(=O)c1cnc(N2CCC(CC3CCN(C(=O)[C@](O)(c4ccccc4)C(F)(F)F)CC3)CC2)cc1Cl [Example 7-2]", "ASSAYED SYSTEM": "glutathione-S-transferase (GST) tagged LXRbeta LBD (ligand binding domain) (Homo sapiens)", "QUALITATIVE LABEL": "upper range"}
{"COMPOUND": "CC(C)Oc1cccc([C@@](O)(C(=O)N2CCC(CC3CCN(c4ccc(C(=O)N(C)C)c(Cl)n4)CC3)CC2)C(F)(F)F)c1 [Example 7-91]", "ASSAYED SYSTEM": "glutathione-S-transferase (GST) tagged LXRbeta LBD (ligand binding domain) (Homo sapiens)", "QUALITATIVE LABEL": "lower range"}
